Target: Human PDE10A enzyme (Homo sapiens)
Construct: transfected with the full-length gene; His-tag; made in house; host or cells: Sf9 or COS-7 cells
Assay: PDE enzyme inhibition, SPA (Scintillation Proximity Assay) with [3H]cGMP
Type: biochemical
Settings: compound 1 μM, [3H]cGMP substrate, read-out: Percent inhibition (1 μM)
QUANTITY_MEASURED: inhibition at 1 µM (%)
Answer with a number only, understood to be in %.

Per the record, CCn1c(=O)n(-c2ccc(Oc3nc4cccnc4n3C)cc2)c2nccc(CO)c21 [Example 138] has inhibition at 1 µM of 93

Short answer for CCCn1c(=O)n(-c2ccc(Oc3nc4cccnc4n3C)cc2)c2ncccc21 [Example 97] : inhibition at 1 µM was 97

Field inhibition at 1 µM (entry CCn1c(=O)n(-c2ccc3c(c2)CCN3c2nc3ccccc3[nH]2)c2ncccc21 [Example 13] ) reads 100

The molecule identified as CC(C)n1c(=O)n(-c2ccc(Oc3nc4cccnc4n3C)cc2)c2ncc(Cl)cc21 [Example 126] registered its inhibition at 1 µM at 98

* * *

Biological target: Human PDE10A enzyme (Homo sapiens)
Construct: transfected with the full-length gene; His-tag; made in house; host or cells: Sf9 or COS-7 cells
Assay: PDE enzyme inhibition, SPA (Scintillation Proximity Assay) with [3H]cGMP
Type: biochemical
Conditions: compound 1 μM, [3H]cGMP substrate, read-out: Percent inhibition (1 μM)
Structures can show the parent of a compound that is named as a salt.
QUANTITY_MEASURED: inhibition at 1 µM (%)
Response body: numeric value in %, unit text excluded.

Lab note: measured inhibition at 1 µM of CCn1c(=O)n(-c2ccc(-n3ncc4cccnc43)cc2)c2ncccc21 was 93

For CCn1c(=O)n(-c2ccc(Oc3cn4ccccc4n3)cc2)c2ncccc21 the compound record lists inhibition at 1 µM as 99

Record summary for O=c1[nH]c2cccnc2n1-c1ccc(N2CCn3c2nc2ccccc23)cc1 : reported inhibition at 1 µM = 104

// sample CCn1c(=O)n(-c2ccc(Oc3nc4cccnc4n3C)cc2)c2ncc(C)cc21 , its inhibition at 1 µM was 102

Just so you know, measured inhibition at 1 µM for CC1(C)C(=O)N(c2ccc(Oc3nc4ccccc4[nH]3)cc2)c2ncccc21 [Example 9, dihydrochloride] came out at 99

Entry Cn1c(Oc2ccc(-n3c(=O)n(C4CC4)c4cccnc43)cc2)nc2cccnc21 , inhibition at 1 µM reported as 100

Looking up CC1(C)C(=O)N(c2ccc(Oc3cn4ccccc4n3)cc2)c2ncccc21 , I see its inhibition at 1 µM listed as 96

// inhibition at 1 µM value for CCn1c(=O)n(-c2ccc(Oc3nc4cccnc4n3C)cc2)c2nccc(C(F)(F)F)c21 : 95

CCn1c(=O)n(-c2ccc(Oc3nc4cccnc4n3C)cc2)c2ncc(F)cc21 has a reported inhibition at 1 µM of 104

Query CCn1c(=O)n(-c2ccc(Oc3nc4ccncc4[nH]3)cc2)c2ncccc21 yields inhibition at 1 µM of 100

So for CCn1c(=O)n(-c2ccc3c(c2)CCN3c2nc3cccnc3[nH]2)c2ncccc21 , the logged inhibition at 1 µM turned out to be 99

response.value for CCn1c(=O)n(-c2ccc(Oc3nc4c(n3C)CCCC4)cc2)c2ncccc21 (field: inhibition at 1 µM) = 99

Field inhibition at 1 µM (entry CCn1c(=O)n(-c2ccc(Oc3nc4cccnc4n3C)cc2)c2ncc(OCC(F)F)cc21 ) reads 94

Lab book: inhibition at 1 µM of Cn1c(Oc2ccc(N3C(=O)C(C)(C)c4cccnc43)cc2)nc2ccccc21 noted as 99

Per the records, this compound ( CCn1c(=O)n(-c2ccc(Oc3nc4cccnc4n3C)cc2)c2nccc(COC(C)=O)c21 ) has inhibition at 1 µM equal to 88

Given item CCn1c(=O)n(-c2ccc(Oc3nc4cccnc4n3C)cc2)c2nccc(C)c21 , the value recorded as its inhibition at 1 µM is 109

CCn1c(=O)n(-c2ccc(Oc3nc4ccccc4n3C)cc2)c2ncc(Cl)cc21 yielded inhibition at 1 µM of 103

* * *

Provide the reported inhibition at 10 µM of each item.
Target: Human PDE10A enzyme (Homo sapiens, UniProt Q9Y233)
Construct: transfected with the full-length gene; His-tag; made in house; host or cells: Sf9 or COS-7 cells
Sequence (Q9Y233 267-1055): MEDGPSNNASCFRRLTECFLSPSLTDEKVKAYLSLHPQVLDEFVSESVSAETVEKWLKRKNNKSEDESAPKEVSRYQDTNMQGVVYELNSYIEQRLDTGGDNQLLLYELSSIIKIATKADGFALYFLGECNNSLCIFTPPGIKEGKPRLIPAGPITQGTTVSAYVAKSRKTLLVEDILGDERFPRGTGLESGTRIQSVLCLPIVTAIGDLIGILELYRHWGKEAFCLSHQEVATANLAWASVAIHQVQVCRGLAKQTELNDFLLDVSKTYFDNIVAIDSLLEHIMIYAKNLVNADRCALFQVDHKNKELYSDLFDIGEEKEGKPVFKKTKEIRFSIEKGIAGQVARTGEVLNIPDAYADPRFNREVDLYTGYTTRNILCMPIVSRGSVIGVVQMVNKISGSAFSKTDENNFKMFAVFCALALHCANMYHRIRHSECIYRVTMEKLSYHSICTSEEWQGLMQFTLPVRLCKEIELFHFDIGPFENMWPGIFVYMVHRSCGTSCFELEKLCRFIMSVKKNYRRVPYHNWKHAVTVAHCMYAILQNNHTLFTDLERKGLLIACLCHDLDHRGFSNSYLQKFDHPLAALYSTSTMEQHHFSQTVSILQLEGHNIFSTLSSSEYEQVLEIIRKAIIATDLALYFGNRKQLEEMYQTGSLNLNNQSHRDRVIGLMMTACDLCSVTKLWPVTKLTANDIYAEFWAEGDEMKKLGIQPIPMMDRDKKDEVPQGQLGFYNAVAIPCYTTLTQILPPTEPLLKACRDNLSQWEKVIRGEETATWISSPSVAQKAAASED
Test: PDE enzyme inhibition, SPA (Scintillation Proximity Assay) with [3H]cGMP
Format: biochemical
Conditions: compound 10 μM, [3H]cGMP substrate, read-out: Percent inhibition (10 μM)
Express your answer in %, writing the number without its unit.

inhibition at 10 µM measured on CCn1c(=O)n(-c2ccc(Oc3nc4ccncc4[nH]3)cc2)c2ncccc21 = 97

In plain terms, CCn1c(=O)n(-c2ccc(Oc3cn4ccccc4n3)cc2)c2ncc(C)cc21 has a documented inhibition at 10 µM of 99

Sample O=c1[nH]c2cccnc2n1-c1ccc(N2CCn3c2nc2ccccc23)cc1 ; inhibition at 10 µM observed: 103

# inhibition at 10 µM (molecule: CCn1c(=O)n(-c2ccc3c(c2)CCN3c2nc3ccccc3[nH]2)c2ncccc21 ) is 101

// inhibition at 10 µM lookup, molecule = CCn1c(=O)n(-c2ccc(Oc3cn4ccccc4n3)cc2)c2ncccc21 , result: 98

For Cn1c(Oc2ccc(-n3c(=O)n(C4CC4)c4cccnc43)cc2)nc2ccccc21 the molecule record lists inhibition at 10 µM as 103

Short answer for CCn1c(=O)n(-c2ccc(Oc3nc4ccccc4n3C)cc2)c2ncc(Cl)cc21 : inhibition at 10 µM was 102

Form: molecule = CCn1c(=O)n(-c2ccc(Oc3nc4cccnc4n3C)cc2)c2nccc(COC(C)=O)c21 ; inhibition at 10 µM = 98

* * *

For each of the compounds below, state its inhibition at 1 µM.
Target: Human PDE10A enzyme (Homo sapiens, UniProt Q9Y233)
Construct: transfected with the full-length gene; His-tag; made in house; host or cells: Sf9 or COS-7 cells
Assay: PDE enzyme inhibition, SPA (Scintillation Proximity Assay) with [3H]cGMP
Type: biochemical
Conditions: compound 1 μM, [3H]cGMP substrate, read-out: Percent inhibition (1 μM)
Where a name gives a salt, the structure may show the parent alone.
# unit: % | format: bare number

Briefly, inhibition at 1 µM measured for CCn1c(=O)n(-c2ccc(Oc3nc4ccccc4n3C)cc2)c2ncncc21 : 99

The value of inhibition at 1 µM measured for the compound CCn1c(=O)n(-c2ccc(Oc3nc4ccccc4[nH]3)cc2)c2nccc(C)c21 [Example 64, dihydrochloride] turned out to be 100

Record CCn1c(=O)n(-c2ccc(N3CCn4c3nc3cccnc34)cc2)c2ncccc21 , field inhibition at 1 µM: 101

* * *

Could you please report measured inhibition at 1 µM for the items listed next?
Target: Human PDE10A enzyme (Homo sapiens)
Construct: transfected with the full-length gene; His-tag; made in house; host or cells: Sf9 or COS-7 cells
Test: PDE enzyme inhibition, SPA (Scintillation Proximity Assay) with [3H]cGMP
Type: biochemical
Conditions: compound 1 μM, [3H]cGMP substrate, read-out: Percent inhibition (1 μM)
Method: Human PDE10A enzyme was generated from Sf9 or COS-7 cells transfected with the full-length gene. Cloned enzyme was extracted from homogenized cell pellets. The extracted enzyme from sf9 cells was partially purified using His-tag affinity column. The enzyme was stored at −70° C. until use. PDE activity was measured using a SPA (Scintillation Proximity Assay) (GE Healthcare). […] Inhibition rate was calculated on the basis of 0% control wells with DMSO and 100% control wells without enzyme.
API: value field is a number in %; no unit string.

inhibition at 1 µM in this record for Cn1c(Oc2ccc(-n3c(=O)n(C(F)F)c4cccnc43)cc2)nc2cccnc21 : 101

For this molecule ( CCn1c(=O)n(-c2ccc(Oc3nc4cccnc4n3C)cc2)c2c1c(C)cc[n+]2[O-] ), measured inhibition at 1 µM is 81

Please fill in: inhibition at 1 µM reported for CCn1c(=O)n(-c2ccc(Oc3nc4cccnc4n3C)cc2)c2ncc(OCC(F)(F)F)cc21 = 89

Sure, the documented inhibition at 1 µM for CCn1c(=O)n(-c2ccc3c(c2)CCN3c2nc3ccccc3n2C)c2ncccc21 is 96

The recorded inhibition at 1 µM for entry CCn1c(=O)n(-c2ccc(-n3ccn4c5ccccc5nc34)cc2)c2ncccc21 equals 100

Briefly, inhibition at 1 µM measured for Cc1ccnc2c1n(C(C)C)c(=O)n2-c1ccc(Oc2nc3cccnc3n2C)cc1 : 103

For reference, reported inhibition at 1 µM for CCn1c(=O)n(-c2ccc(Oc3nc4cccnc4n3C)cc2)c2ncc(Cl)cc21 stands at 103

GET /value?item= CCn1c(=O)n(-c2ccc(Oc3nc4cccnc4n3C)cc2)c2ncc(C#N)cc21 &field=inhibition at 1 µM returns 100

inhibition at 1 µM reported for this molecule Cc1ccnc2c1n(C)c(=O)n2-c1ccc(Oc2nc3cccnc3n2C)cc1 : 94

Please fill in: inhibition at 1 µM reported for Cc1cnc2c(c1)n(C(C)C)c(=O)n2-c1ccc(Oc2nc3cccnc3n2C)cc1 = 109

For this molecule ( CCn1c(=O)n(-c2ccc(Oc3nc4ccccc4n3CCO)cc2)c2ncccc21 ), measured inhibition at 1 µM is 100

inhibition at 1 µM measured on O=c1[nH]c2cccnc2n1-c1ccc(Nc2nc3ccccc3o2)cc1 = 98

Reported inhibition at 1 µM of CC(C)n1c(=O)n(-c2ccc3c(c2)CCN3c2nc3cccnc3[nH]2)c2ncccc21 : 104

Just so you know, measured inhibition at 1 µM for CCn1c(=O)n(-c2ccc(Oc3nc4ccccc4n3CC(C)(C)O)cc2)c2ncccc21 came out at 99

So for CC(C)n1c(=O)n(-c2ccc(Oc3nc4cccnc4n3C)cc2)c2ncccc21 , the logged inhibition at 1 µM turned out to be 99

Entry CCn1c(=O)n(-c2ccc(Oc3cn4ccccc4n3)cc2)c2ncc(C)cc21 , inhibition at 1 µM reported as 99

// inhibition at 1 µM value for CCn1c(=O)n(-c2ccc(Oc3nc4cccnc4n3C)cc2)c2ncccc21 : 97
